Tested on: NCI-H292
Assay: Cytotoxicity against human NCI-H292 cells at 10 ug/mL after 72 hrs by MTT assay
Assay type: functional
Details: NCI-H292, 72 h, read-out: GI
readout.kind: inhibition of growth at 10 µg/mL (%)
Just the number please, in %, no unit attached.

## Input Indicate the recorded inhibition of growth at 10 µg/mL value for this compound: `O=C1NC(=S)/C(=C/c2ccccc2Cl)S1`
## Output 45

## Input Indicate the recorded inhibition of growth at 10 µg/mL value for this compound: `O=C1NC(=S)/C(=C/c2cc(Cl)cc(Cl)c2Cl)S1`
## Output 40.5

## Input Indicate the recorded inhibition of growth at 10 µg/mL value for this compound: `O=C1NC(=S)/C(=C/c2ccc(Cl)c(Cl)c2)S1`
## Output 43.3

## Input Indicate the recorded inhibition of growth at 10 µg/mL value for this compound: `O=C1NC(=S)/C(=C/c2cccc(F)c2)S1`
## Output 26.8

## Input Indicate the recorded inhibition of growth at 10 µg/mL value for this compound: `O=C1NC(=S)/C(=C/c2ccc(Br)cc2)S1`
## Output 36.5

## Input Indicate the recorded inhibition of growth at 10 µg/mL value for this compound: `O=C1NC(=S)/C(=C/c2ccc(F)cc2)S1`
## Output 38

## Input Indicate the recorded inhibition of growth at 10 µg/mL value for this compound: `O=C1NC(=S)/C(=C/c2cccc(Br)c2)S1`
## Output 42.4

## Input Indicate the recorded inhibition of growth at 10 µg/mL value for this compound: `O=C1NC(=S)/C(=C/c2ccccc2F)S1`
## Output 40.4

## Input Indicate the recorded inhibition of growth at 10 µg/mL value for this compound: `O=C1NC(=S)/C(=C/c2c(Cl)cccc2Cl)S1`
## Output 32.8

## Input Indicate the recorded inhibition of growth at 10 µg/mL value for this compound: `O=C1NC(=S)/C(=C/c2cccc(Cl)c2)S1`
## Output 30.9

## Input Indicate the recorded inhibition of growth at 10 µg/mL value for this compound: `O=C1NC(=S)/C(=C/c2ccc(Cl)cc2)S1`
## Output 41.4

## Input Indicate the recorded inhibition of growth at 10 µg/mL value for this compound: `O=C1NC(=S)/C(=C/c2ccccc2Br)S1`
## Output 36.9

## Input Indicate the recorded inhibition of growth at 10 µg/mL value for this compound: `O=C1NC(=S)/C(=C/c2ccc(Cl)cc2Cl)S1`
## Output 38.4

###

Tested on: Enterococcus faecalis
Assay: Antimicrobial activity against multidrug-resistant Enterococcus faecalis H.C. 21752 isolate after 20 hrs by twofold serial dilution technique
Assay type: functional
Details: H.C. 21752, 20 h
readout.kind: MIC (µg/mL)
Just the number please, in µg/mL, no unit attached.

## Input Indicate the recorded MIC value for this molecule: `O=C1NC(=S)/C(=C/c2cccc(Cl)c2)S1`
## Output 4

## Input Indicate the recorded MIC value for this molecule: `O=C1NC(=S)/C(=C/c2ccc(Cl)cc2Cl)S1`
## Output 4

## Input Indicate the recorded MIC value for this molecule: CC1=C(C(=O)O)N2C(=O)[C@@H](NC(=O)[C@H](N)c3ccccc3)[C@H]2SC1 [CEPHALEXIN ANHYDROUS]
## Output 64

## Input Indicate the recorded MIC value for this molecule: `O=C1NC(=S)/C(=C/c2c(Cl)cccc2Cl)S1`
## Output 8

## Input Indicate the recorded MIC value for this molecule: `O=C1NC(=S)/C(=C/c2cccc(F)c2)S1`
## Output 16

## Input Indicate the recorded MIC value for this molecule: `O=C1NC(=S)/C(=C/c2cccc(Br)c2)S1`
## Output 8

## Input Indicate the recorded MIC value for this molecule: `O=C1NC(=S)/C(=C/c2ccccc2F)S1`
## Output 32

## Input Indicate the recorded MIC value for this molecule: `O=C1NC(=S)/C(=C/c2ccccc2Cl)S1`
## Output 16

## Input Indicate the recorded MIC value for this molecule: `O=C1NC(=S)/C(=C/c2ccc(Br)cc2)S1`
## Output 8

## Input Indicate the recorded MIC value for this molecule: `O=C1NC(=S)/C(=C/c2ccc(F)cc2)S1`
## Output 32

## Input Indicate the recorded MIC value for this molecule: `O=C1NC(=S)/C(=C/c2cc(Cl)cc(Cl)c2Cl)S1`
## Output 4

## Input Indicate the recorded MIC value for this molecule: `O=C1NC(=S)/C(=C/c2ccc(Cl)c(Cl)c2)S1`
## Output 8

## Input Indicate the recorded MIC value for this molecule: `O=C1NC(=S)CS1`
## Output 32

## Input Indicate the recorded MIC value for this molecule: `O=C1NC(=S)/C(=C/c2ccccc2Br)S1`
## Output 8

## Input Indicate the recorded MIC value for this molecule: `CC1(C)S[C@@H]2[C@H](NC(=O)[C@H](N)c3ccccc3)C(=O)N2[C@H]1C(=O)O`
## Output 2

## Input Indicate the recorded MIC value for this molecule: `O=C1NC(=S)/C(=C/c2ccc(Cl)cc2)S1`
## Output 16

###

Test system: NCI-H292
Assay: Cytotoxicity against human NCI-H292 cells at 2.5 ug/mL after 72 hrs by MTT assay
Assay type: functional
Conditions: NCI-H292, 72 h, read-out: GI
Give class 1 when the value for inhibition of growth at 2.5 µg/mL is at least 20%. Give class 0 when it is less.

## Input Hi, just wondering whether `O=C1NC(=S)/C(=C/c2cccc(Br)c2)S1` shows inhibition of growth at 2.5 µg/mL of 20% or higher.
## Output class 0

## Input Hi, just wondering whether `O=C1NC(=S)/C(=C/c2ccccc2Br)S1` shows inhibition of growth at 2.5 µg/mL of 20% or higher.
## Output class 0

## Input Hi, just wondering whether `O=C1NC(=S)/C(=C/c2ccccc2F)S1` shows inhibition of growth at 2.5 µg/mL of 20% or higher.
## Output class 0

## Input Hi, just wondering whether `O=C1NC(=S)/C(=C/c2ccc(Cl)c(Cl)c2)S1` shows inhibition of growth at 2.5 µg/mL of 20% or higher.
## Output class 0

## Input Hi, just wondering whether `O=C1NC(=S)/C(=C/c2cccc(F)c2)S1` shows inhibition of growth at 2.5 µg/mL of 20% or higher.
## Output class 0

## Input Hi, just wondering whether `O=C1NC(=S)/C(=C/c2cccc(Cl)c2)S1` shows inhibition of growth at 2.5 µg/mL of 20% or higher.
## Output class 0

## Input Hi, just wondering whether `O=C1NC(=S)/C(=C/c2c(Cl)cccc2Cl)S1` shows inhibition of growth at 2.5 µg/mL of 20% or higher.
## Output class 0

## Input Hi, just wondering whether `O=C1NC(=S)/C(=C/c2ccc(Cl)cc2Cl)S1` shows inhibition of growth at 2.5 µg/mL of 20% or higher.
## Output class 0

## Input Hi, just wondering whether `O=C1NC(=S)/C(=C/c2ccc(Br)cc2)S1` shows inhibition of growth at 2.5 µg/mL of 20% or higher.
## Output class 0

## Input Hi, just wondering whether `O=C1NC(=S)/C(=C/c2cc(Cl)cc(Cl)c2Cl)S1` shows inhibition of growth at 2.5 µg/mL of 20% or higher.
## Output class 1

## Input Hi, just wondering whether `O=C1NC(=S)/C(=C/c2ccc(F)cc2)S1` shows inhibition of growth at 2.5 µg/mL of 20% or higher.
## Output class 0

## Input Hi, just wondering whether `O=C1NC(=S)/C(=C/c2ccc(Cl)cc2)S1` shows inhibition of growth at 2.5 µg/mL of 20% or higher.
## Output class 1

###

System: Enterococcus faecalis
Assay: Antimicrobial activity against Enterococcus faecalis UFPEDA 138 at 300 ug/disk after 24 hrs by disk diffusion method
Type: functional
Details: UFPEDA 138, 24 h, read-out: IZ
Give y when the value for zone of inhibition at 300 µg/disc is at least 20 mm. Give n when it is less.

## Input Hi, just wondering whether `O=C1NC(=S)/C(=C/c2ccccc2Br)S1` shows zone of inhibition at 300 µg/disc of 20 mm or higher.
## Output n

## Input Hi, just wondering whether `O=C1NC(=S)/C(=C/c2ccc(Cl)cc2)S1` shows zone of inhibition at 300 µg/disc of 20 mm or higher.
## Output n

## Input Hi, just wondering whether `O=C1CSC(=O)N1` shows zone of inhibition at 300 µg/disc of 20 mm or higher.
## Output n

## Input Hi, just wondering whether `O=C1NC(=S)/C(=C/c2cccc(Cl)c2)S1` shows zone of inhibition at 300 µg/disc of 20 mm or higher.
## Output y

## Input Hi, just wondering whether `O=C1NC(=S)/C(=C/c2ccc(F)cc2)S1` shows zone of inhibition at 300 µg/disc of 20 mm or higher.
## Output y

## Input Hi, just wondering whether `O=C1NC(=S)/C(=C/c2ccc(Br)cc2)S1` shows zone of inhibition at 300 µg/disc of 20 mm or higher.
## Output n

## Input Hi, just wondering whether `O=C1NC(=S)/C(=C/c2cc(Cl)cc(Cl)c2Cl)S1` shows zone of inhibition at 300 µg/disc of 20 mm or higher.
## Output n

## Input Hi, just wondering whether `O=C1NC(=S)CS1` shows zone of inhibition at 300 µg/disc of 20 mm or higher.
## Output y

## Input Hi, just wondering whether `O=C1NC(=S)/C(=C/c2c(Cl)cccc2Cl)S1` shows zone of inhibition at 300 µg/disc of 20 mm or higher.
## Output n

## Input Hi, just wondering whether `O=C1NC(=S)/C(=C/c2ccccc2Cl)S1` shows zone of inhibition at 300 µg/disc of 20 mm or higher.
## Output n

## Input Hi, just wondering whether `O=C1NC(=S)/C(=C/c2cccc(Br)c2)S1` shows zone of inhibition at 300 µg/disc of 20 mm or higher.
## Output y

## Input Hi, just wondering whether `O=C1NC(=S)/C(=C/c2cccc(F)c2)S1` shows zone of inhibition at 300 µg/disc of 20 mm or higher.
## Output y

## Input Hi, just wondering whether `O=C1NC(=S)/C(=C/c2ccc(Cl)cc2Cl)S1` shows zone of inhibition at 300 µg/disc of 20 mm or higher.
## Output n
